Tested on: chloroform-induced ventricular fibrillation
Assay: Antiarrhythmic effect against chloroform-induced ventricular fibrillation in mice
Type: in vivo
Conditions: Mus musculus, iv, 1 min; male mice; i.v. one minute before test; ventricular fibrillation prevented in 50% of animals; read-out: ED50 i.v.
Counter-ions that a name gives are not always drawn.
reported_metric: ED50 (mg/kg)
Please reply with the bare figure in mg/kg and do not write the unit itself.

CN(C)CCN1C(=O)c2c(ccc3nc(-c4ccccc4)[nH]c23)C(C)(C)C1=O | 6.1
CC1(C)C(=O)N(CCCN2CCCCC2)C(=O)c2c1ccc1nc(-c3ccccc3)[nH]c21 [P, dihydrochloride] | 10.5
CCN(CC)CCCN1C(=O)c2c(ccc3nc(-c4ccccc4)[nH]c23)C(C)(C)C1=O [O, dihydrochloride] | 6.4

Now, please, on to the next molecule.
query: Which ED50 is reported for this molecule? CCN(CC)CCN1C(=O)c2c(ccc3nc(-c4ccccc4)[nH]c23)C(C)(C)C1=O [N, dihydrochloride]
result: 2.4

* * *

Tested on: arterial blood pressure and dp/dt max. (left ventricle)
Experiment: Cardiotonic and blood pressure effects in anesthetized cats
Format: in vivo, cat
Settings: 2 mg/kg intravenously, second of two values
Counter-ions that a name gives are not always drawn.
Recorded Change in blood pressure (second value of the pair printed with a slash), one value per entry.
Please reply with the bare figure in mm Hg and do not write the unit itself.

// known answers, use as guide
CC1(C)C(=O)NC(=O)c2c1ccc1nc(-c3ccc(O)cc3)[nH]c21 [J, hydrochloride] | -58
COc1ccc(S(C)(=O)=O)cc1-c1nc2ccc3c(c2[nH]1)C(=O)NC(=O)C3(C)C | -67
CC1(C)C(=O)NC(=O)c2c1ccc1nc(C3CCCCC3)[nH]c21 | -40
CC1(C)C(=O)NC(=O)c2c1ccc1nc(Cc3ccccc3)[nH]c21 | -63
COc1ccc(-c2nc3ccc4c(c3[nH]2)C(=O)NC(=O)C4(C)C)cc1 [I, hydrochloride] | -46
COc1ccccc1-c1nc2ccc3c(c2[nH]1)C(=O)NC(=O)C3(C)C [Compound E, hydrochloride] | -63
CC1(C)C(=O)NC(=O)c2c1ccc1[nH]c(CCc3ccccc3)nc21 | -50

query: Which Change in blood pressure (second value of the pair printed with a slash) is reported for this compound? CC1(C)C(=O)NC(=O)c2c1ccc1nc(-c3ccc(Cl)cc3)[nH]c21 [G, hydrochloride]
result: -30
